experiment: Vibrio harveyi AI-2 signaling luminescence modulation – JMH597 strain, confirmation (AID 2736); settings: Vibrio harveyi JMH597 AI-2 quorum sensing luminescence, 9 h; at 7.5 µM; stronger effect = higher value; luxN and CqsS knockout, AI-2 only
The list shows a part of the results. Active and inactive are the calls of the source.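 How the source made its calls: active means every replicate shows more than 75% inhibition of signal versus neutral control wells; inconclusive means half to three quarters of replicates exceed 75% inhibition; inactive means fewer than half of replicates exceed 75% inhibition.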
observed_property: inhibition

{"molecule": "O=C(/C=C/c1ccc2c(c1)OCCO2)c1ccc(O)cc1", "observed_property": "inhibition", "experimental_value": "95.7% (active)"}
{"molecule": "O=C(Cn1cnc2ccccc2c1=O)Nc1cccc(S(=O)(=O)N2CCCCC2)c1", "observed_property": "inhibition", "experimental_value": "88.6% (active)"}
{"molecule": "Cc1ccsc1C(=O)OCC(=O)c1cc2ccccc2o1", "observed_property": "inhibition", "experimental_value": "96.8% (active)"}
{"molecule": "Cc1ccccc1C(=O)Nc1ccc(N2CCCCCC2)cc1", "observed_property": "inhibition", "experimental_value": "94.5% (active)"}
{"molecule": "O=C(c1cc(-c2cccc(O)c2)on1)N1CCc2ccccc2C1", "observed_property": "inhibition", "experimental_value": "94.4% (active)"}
{"molecule": "COc1cccc(NC(=O)NCc2ccc(F)cc2)c1", "observed_property": "inhibition", "experimental_value": "95.3% (active)"}
{"molecule": "O=C(CCC(=O)c1cccs1)Nc1nc2ccccc2s1", "observed_property": "inhibition", "experimental_value": "97.8% (active)"}
{"molecule": "O=C(COc1ncnc2ccccc12)NC(=O)NCc1ccccc1", "observed_property": "inhibition", "experimental_value": "96.5% (active)"}
{"molecule": "COC(=O)c1ccc(SCc2ccccc2)nc1", "observed_property": "inhibition", "experimental_value": "97.3% (active)"}
{"molecule": "CC(=O)c1cccc(OCc2cc(C(=O)NC(C)Cc3cccnc3)no2)c1 (centres undefined)", "observed_property": "inhibition", "experimental_value": "95.5% (active)"}
{"molecule": "O=C(/C=C/c1ccc2c(c1)OCO2)NCc1ccc(F)cc1", "observed_property": "inhibition", "experimental_value": "94.2% (active)"}
{"molecule": "Cc1ccccc1NC(=O)CCOc1ccccc1", "observed_property": "inhibition", "experimental_value": "91.6% (active)"}
{"molecule": "N/C(=N\\OC(=O)CCc1ccccc1)c1cccnc1", "observed_property": "inhibition", "experimental_value": "93.1% (active)"}
{"molecule": "Cc1ccc(NS(=O)(=O)c2ccc3c(c2)NC(=O)CO3)cc1", "observed_property": "inhibition", "experimental_value": "95% (active)"}
{"molecule": "Cc1cc(CN(C)C(=O)c2cc(COc3ccc(C)c(C)c3)on2)n[nH]1", "observed_property": "inhibition", "experimental_value": "97.5% (active)"}
{"molecule": "CCOc1ccc(/C=N/NC(N)=S)cc1", "observed_property": "inhibition", "experimental_value": "94.3% (active)"}
{"molecule": "Cc1nn(CC(=O)Nc2ccc(F)cc2)c(=O)c2ccccc12", "observed_property": "inhibition", "experimental_value": "99% (active)"}
{"molecule": "Cc1cccc(CSc2ccc(-c3cccs3)nn2)c1", "observed_property": "inhibition", "experimental_value": "96.9% (active)"}
{"molecule": "O=C(COC(=O)C1CCCCC1)Nc1ccc([N+](=O)[O-])cc1", "observed_property": "inhibition", "experimental_value": "95.3% (active)"}
